System: HT29 colon
assay.remarks: NCI-60 one-dose screen, 48 h
assay.setup: 10 µM unless noted
Compounds without any hit were thinned out: in the full panel of roughly 83,000, 20% have a hit. Calls of active or inactive are those of the source. The calls were made as follows: active = growth percent below 10; inactive = the rest.
Outcomes: active, inactive

substance.smiles: CCOC(=O)c1ccc(Nc2ncnc3c2cnn3-c2cccc(F)c2)cc1
assigned.category: inactive
//
substance.smiles: Nc1nc(CSc2n[nH]c(N)n2)nc(Nc2ccccc2)n1
assigned.category: inactive
//
substance.smiles: N=c1c2c(-c3ccccc3)c(-c3ccccc3)oc2ncn1NC(=O)c1cccnc1
assigned.category: inactive
//
substance.smiles: CCOC(=O)C(=Cc1ccc(C#N)cc1)C(=O)OCC
assigned.category: active
//
substance.smiles: CC(=O)c1nn(-c2ccccc2)/c(=N/N=Cc2cn(-c3ccccc3)nc2-c2cc3ccccc3oc2=O)s1
assigned.category: inactive
//
substance.smiles: COc1cc(/C=C2/C=C(c3ccc(C(C)(C)C)cc3)N(CCc3ccc(S(N)(=O)=O)cc3)C2=O)cc(OC)c1OC
assigned.category: active
//
substance.smiles: COc1cc(-c2nc3occn3c2-c2ccnc(NCCCNS(=O)(=O)c3ccc(O)cc3)n2)ccc1F
assigned.category: inactive
//
substance.smiles: CC(C)(C)c1cc(C(C)(C)c2ccccc2)cc(Cc2cc(C(C)(C)c3ccccc3)cc(C(C)(C)C)c2O)c1O
assigned.category: inactive
//
substance.smiles: COc1ccccc1/C=C1\COc2ccc(O)c(O)c2C1=O
assigned.category: inactive
//
substance.smiles: COc1ccc(-c2cc3cnc4ccccc4c3oc2=O)cc1
assigned.category: inactive

---

System: RPMI-8226 leukemia
assay.remarks: NCI-60 one-dose screen, 48 h (100 = growth as untreated, 0 = no growth, -100 = all killed)
assay.setup: 10 µM unless noted
About 83,000 compounds went through this panel and 20% of them were active in at least one assay; those are over-represented in the sample as a whole.
Param label: returns yes (1) when growth < 70%, returns no (0) otherwise, including exact equality.

compound: COC1/C=C/OC2(C)Oc3c(C)c(O)c4c(O)c(c(C=NOC(c5ccccc5)c5ccccc5)c(O)c4c3C2=O)NC(=O)/C(C)=C/C=C/C(C)C(O)C(C)C(O)C(C)C(OC(C)=O)C1C (centres undefined)
subject.of.test: RPMI-8226 leukemia
assigned.category: yes (1)
--
compound: COC(=O)c1[nH]nc(OC)c1C1(C(C#N)c2nc3ccccc3s2)CCCc2ccccc21 (centres undefined)
subject.of.test: RPMI-8226 leukemia
assigned.category: no (0)
--
compound: N#CC1=C(N)Oc2c(sc3c(Br)cccc23)C1c1ccccn1 (centres undefined)
subject.of.test: RPMI-8226 leukemia
assigned.category: yes (1)
--
compound: CCCCCCCC/C=C\CCCCCCCCOc1ccccc1CC(=O)NCC[N+]1(C)CCOCC1
subject.of.test: RPMI-8226 leukemia
assigned.category: no (0)
--
compound: COc1ccc(NC(=O)Nc2ccccc2CNc2nc(Nc3ccc(OCCN4CCCC4)cc3)ncc2Cl)cc1
subject.of.test: RPMI-8226 leukemia
assigned.category: yes (1)
--
compound: N#CSc1c[nH]c2ccc(/C=C/C(=O)/C=C(/C=C/c3ccc4[nH]cc(SC#N)c4c3)OB(F)F)cc12
subject.of.test: RPMI-8226 leukemia
assigned.category: yes (1)
--
compound: Fc1ccccc1-c1cnn2cc(-c3ccccc3)cnc12
subject.of.test: RPMI-8226 leukemia
assigned.category: no (0)

---

System: A549/ATCC NSCLC
assay.remarks: NCI-60 one-dose screen, 48 h
assay.setup: 10 µM unless noted
The panel holds about 83,000 compounds, 20% with a hit somewhere; the sample as a whole holds those more often. The source made the active and inactive calls. How the source made its calls: active means growth percent below 10; inactive means the rest.
Outcomes: active, inactive

compound: COC(=O)c1nc(-c2ccc(C)cc2)oc1Sc1ccc(C)cc1
assigned.category: inactive
--
compound: COC(=O)c1c2c(c(C)[n+]([O-])c1C)C(=O)C(NCCN1CCOCC1)=CC2=O
assigned.category: inactive
--
compound: Cc1ccc(S(=O)(=O)OC[C@@]2(C)CC[C@]3(C)CC[C@]4(C)C(=C3C2)C=C[C@@H]2[C@@]3(C)CCCNC(C)(C)[C@@H]3CC[C@]24C)cc1
assigned.category: active
--
compound: CCN(CC)CC(=O)Nc1ccc2ncnc(Nc3ccc(Oc4cccc(F)c4)c(Cl)c3)c2c1
assigned.category: inactive
--
compound: CCOC(=O)CCCn1c(-c2ccccc2)cc(-c2ccccc2)c(C#N)c1=O
assigned.category: inactive
--
compound: Clc1ccc2c(NCCN3CCN(c4ccnc(N5CCCC5)n4)CC3)ccnc2c1
assigned.category: inactive
--
compound: OCCN1CCN(c2cc(-c3cccc(OC(F)(F)F)c3)nc3ccc(N4CCCC4)cc23)CC1
assigned.category: inactive
--
compound: O=C(Nc1ccc2ccccc2c1)c1cc2ccccc2cc1O
assigned.category: inactive
--
compound: CN1C(=O)N(C)C2(c3ccccc3)N(CC(=O)Nc3ccccc3O)C(=O)NC12c1ccccc1 (stereo unspecified)
assigned.category: inactive
--
compound: COC(=O)/C=C1/SC(=Nc2ccc([N+](=O)[O-])cc2)N(CCc2c[nH]c3ccccc23)C1=O
assigned.category: inactive
--
compound: COc1ccccc1/C=C1\COc2ccc(O)c(O)c2C1=O
assigned.category: inactive
--
compound: CC(=O)Nc1c(I)c(NC(C)=O)c(I)c(C(=O)O)c1I
assigned.category: inactive
--
compound: N=C(N)c1ccc(-c2ccc(-c3ccc(Cl)c(Cl)c3)s2)cc1
assigned.category: active
--
compound: Cc1c(CC(=O)OCCO)cc(-c2ccc(Cl)cc2)n1-c1ccccc1
assigned.category: inactive
--
compound: COc1cccc(NC(=O)c2sc3nc(C)c(C(O)c4ccccc4)cc3c2N)c1 (stereo unspecified)
assigned.category: inactive
--
compound: COc1ccc(Nc2ncnc3ccc(-c4cncc(NS(C)(=O)=O)c4)cc23)cc1Cl
assigned.category: inactive
--
compound: O=C(CCl)n1nnnc1Cc1ccccc1
assigned.category: inactive
--
compound: C[C@@H]1O[C@@H](O[C@H]2[C@@H](OC(=O)[C@]34CCC(C)(C)C[C@H]3C3=CC[C@@H]5[C@@]6(C)C[C@H](O)[C@H](O[C@@H]7O[C@H](CO)[C@@H](O)[C@H](O)[C@H]7O)[C@@](C)(CO)[C@@H]6CC[C@@]5(C)[C@]3(C)C[C@H]4O)OC[C@@H](O)[C@@H]2O)[C@H](O)[C@H](O[C@@H]2OC[C@@H](O)[C@H](O[C@@H]3OC[C@](O)(CO)[C@H]3O[C@@H]3OC[C@@H](O)[C@H](O)[C@H]3O)[C@H]2O)[C@H]1O[C@@H]1OC[C@](O)(CO)[C@H]1O
assigned.category: inactive
--
compound: COc1ccc(/C(C)=C(\c2ccc(OCCN3CCOCC3)cc2)c2ccc(OC(=O)C3CCCCC3)cc2)cc1
assigned.category: inactive
--
compound: COc1ccc(/C=C/C(=O)c2cc3c(N)c(C(=O)Nc4ccccc4Cl)sc3nc2C)cc1
assigned.category: inactive
--
compound: O=C1CCc2c(sc3[nH]c(=S)n(Cc4ccc(Cl)cc4)c(=O)c23)C1
assigned.category: active
--
compound: Cc1ccc(/C=C(\C#N)c2cc3ccccc3[nH]2)cc1
assigned.category: inactive
--
compound: CC1=CC=C(NC(=O)/C=C/c2ccccc2)CC1Nc1nccc(-c2cccnc2)n1 (stereo unspecified)
assigned.category: inactive
--
compound: C=C1CCC2C3(C)COC(c4ccc(NC(C)=O)cc4)OC3CCC2(C)C1C/C=C1/C(=O)OCC1O (stereo unspecified)
assigned.category: inactive
--
compound: C#CCOc1cccc(Nc2ncc3ncn(C4CCN(C(=O)CCl)C4)c3n2)c1 (stereo unspecified)
assigned.category: inactive
--
compound: CN(C)C(=O)c1cc2cnc(Nc3ccc(-c4csc5c(=S)cc(N6CCOCC6)oc45)cc3)nc2n1C1CCCC1
assigned.category: active
--
compound: COCCn1cc(-c2csc(-c3cn(C)c4ccc(F)cc34)n2)c2cccnc21
assigned.category: inactive
--
compound: COc1cc(C=O)ccc1Oc1ccc([N+](=O)[O-])cc1[N+](=O)[O-]
assigned.category: inactive
--
compound: COc1cc2ncnc(Nc3ccc(F)c(Cl)c3)c2cc1OCC(=O)N1CCCCC1
assigned.category: inactive
--
compound: Clc1ccc(CNc2ccc3nc(CCC4CCCCC4)[nH]c3c2)cc1
assigned.category: inactive
--
compound: CCOC(=O)c1c(-c2ccc(OC)cc2)c(C#N)c2c(C#N)c(N)nn2c1N
assigned.category: inactive
--
compound: COc1ccc(/C=C2\COc3ccc(O)c(O)c3C2=O)c(OC)c1OC
assigned.category: inactive
--
compound: COc1ccc2c(c1)CC[C@@H]1[C@@H]2CC[C@]2(C)C3C(=CCC4C(=O)N(c5ccccc5)C(=O)C43)C[C@@H]12 (stereo partly specified)
assigned.category: inactive
--
compound: COc1ccc(S(=O)(=O)Nc2cc(Sc3cccc4cccnc34)c(O)c3ccccc23)cc1
assigned.category: inactive
--
compound: Cc1cc(N2CCN(CC(=O)Nc3ccc4c(ccn4Cc4ccccc4)c3)CC2)nc(N2CCCCCC2)n1
assigned.category: inactive
--
compound: O=C(NNc1ccccc1)C1CCCN1 (stereo unspecified)
assigned.category: inactive
